target: THR beta-LBD (Homo sapiens); construct: THR beta-LBD (the final concentration is 0.5 nM) was added to the 384-well assay plate; purchased Invitrogen PV4686; assay: THR-β Coactivator Peptide Recruitment Assay (LanthaScreen TR-FRET); type: biochemical; conditions: TR-FRET coactivator recruitment, THR beta-LBD 0.5 nM
Sequence (P10828 217-461 limits assumed): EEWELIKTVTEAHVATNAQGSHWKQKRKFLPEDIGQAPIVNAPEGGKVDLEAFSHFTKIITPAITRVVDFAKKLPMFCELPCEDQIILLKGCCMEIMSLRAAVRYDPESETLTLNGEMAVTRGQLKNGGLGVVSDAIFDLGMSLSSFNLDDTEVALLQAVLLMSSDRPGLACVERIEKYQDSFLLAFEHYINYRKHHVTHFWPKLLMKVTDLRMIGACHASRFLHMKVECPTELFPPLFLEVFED
MEASUREMENT_TYPE: THRβ Emax

>  <COMPOUND>
O=c1[nH]c(=O)n(-c2cc(Cl)c(Oc3ccc(O)c(S(=O)(=O)[C@H]4C[C@@H](O)C4)c3)c(Cl)c2)nc1C(F)F [Compound 100]

>  <THRβ Emax>
A (90~110)

$$$$
>  <COMPOUND>
O=C(NCC(F)F)C1(NS(=O)(=O)c2cc(Oc3c(Cl)cc(-n4nc(C(F)F)c(=O)[nH]c4=O)cc3Cl)ncc2O)CC1 [Compound 117]

>  <THRβ Emax>
C (<75)

$$$$
>  <COMPOUND>
O=c1[nH]c(=O)n(-c2cc(Cl)c(Oc3ccc(O)c(S(=O)(=O)N4CC[C@@H](O)C4)c3)c(Cl)c2)nc1C(F)F [Compound 76]

>  <THRβ Emax>
B (75~90)

$$$$
>  <COMPOUND>
O=c1[nH]c(=O)n(-c2cc(Cl)c(Oc3ccc(O)c(S(=O)(=O)N[C@@H]4CCOC4)c3)c(Cl)c2)nc1C(F)F [Compound 30]

>  <THRβ Emax>
A (90~110)

$$$$
>  <COMPOUND>
CO[C@H]1C[C@H](NS(=O)(=O)c2cc(Oc3c(Cl)cc(-n4nc(C(F)F)c(=O)[nH]c4=O)cc3Cl)ccc2O)C1 [Compound 36]

>  <THRβ Emax>
B (75~90)

$$$$
>  <COMPOUND>
O=C(NCC(F)F)C1(NS(=O)(=O)c2cc(Oc3c(Cl)cc(-n4nc(C(F)F)c(=O)[nH]c4=O)cc3Cl)ccc2O)CC1 [Compound 87]

>  <THRβ Emax>
B (75~90)

$$$$

Req: I have this compound here, O=c1[nH]c(=O)n(-c2cc(Cl)c(Oc3ccc(O)c(S(=O)(=O)NC4CCC4)c3)c(Cl)c2)nc1C(F)F [Compound 12] , and I need its recorded THRβ Emax.
Resp: A (90~110)

Req: Please report the recorded THRβ Emax for O=C(N1CCCC1)C1(NS(=O)(=O)c2cc(Oc3c(Cl)cc(-n4nc(C(F)F)c(=O)[nH]c4=O)cc3Cl)ncc2O)CC1 [Compound 118] .
Resp: B (75~90)

Req: I am curious: what THRβ Emax value has been reported for O=c1[nH]c(=O)n(-c2cc(Cl)c(Oc3cc(S(=O)(=O)N[C@@H]4CC[C@@H]4O)c(O)cn3)c(Cl)c2)nc1C(F)F (stereo in doubt) [Compound 170] ?
Resp: C (<75)

Req: Endpoint output: THRβ Emax of O=c1[nH]c(=O)n(-c2cc(Cl)c(Oc3cc(S(=O)(=O)N[C@H]4C[C@H](O)C4)c(O)cn3)c(Cl)c2)nc1C(F)F [Compound 126] . Value?
Resp: A (90~110)

Req: Which THRβ Emax is listed for O=c1[nH]c(=O)n(-c2cc(Cl)c(Oc3ccc(O)c(S(=O)(=O)N[C@H]4CCOC4)c3)c(Cl)c2)nc1C(F)F [Compound 29] ?
Resp: A (90~110)

Req: Endpoint output: THRβ Emax of O=c1[nH]c(=O)n(-c2cc(Cl)c(Oc3cc(S(=O)(=O)NC4CCC4)c(O)cn3)c(Cl)c2)nc1C(F)F [Compound 123] . Value?
Resp: A (90~110)
